This collection of values is drawn from a collection of fitness landscapes (doi:10.1126/science.1257360).

B1: PhoQ; a variant is named by its letters at X, in order, P23837 (parent)
chain: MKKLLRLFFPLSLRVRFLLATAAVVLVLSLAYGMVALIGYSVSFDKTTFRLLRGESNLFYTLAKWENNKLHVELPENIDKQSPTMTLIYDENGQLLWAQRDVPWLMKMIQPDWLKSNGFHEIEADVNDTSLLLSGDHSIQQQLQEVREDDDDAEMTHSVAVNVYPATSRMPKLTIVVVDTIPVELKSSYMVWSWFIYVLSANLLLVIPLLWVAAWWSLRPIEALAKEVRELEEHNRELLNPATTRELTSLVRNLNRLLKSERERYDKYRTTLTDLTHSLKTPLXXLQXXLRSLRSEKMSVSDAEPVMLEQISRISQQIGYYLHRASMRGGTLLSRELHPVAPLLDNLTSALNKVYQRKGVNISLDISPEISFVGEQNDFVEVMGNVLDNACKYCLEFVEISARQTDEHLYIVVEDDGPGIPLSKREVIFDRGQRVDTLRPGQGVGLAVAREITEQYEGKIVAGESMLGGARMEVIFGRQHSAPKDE

Variants of: B1
protocol-notes: enrichment ratio after two sorts for PhoP signalling (ratio (wild type AVST 3.29)); higher = more functional
assay-setup: with PhoP (E. coli)
Over roughly 140,000 sequences, “enrichment ratio after two sorts for PhoP signalling” has its median near 0; the highest 2% begin near 11. The entries come from a sample that favours the highest values as a whole.
Would you kindly list enrichment ratio for each of these variants?

Input HQTV . Output enrichment ratio: ≤ 0.25

Input LDMA . Output enrichment ratio: ≤ 0.25

Input EYIG . Output enrichment ratio: ≤ 0.25

Input GMCC . Output enrichment ratio: ≤ 0.25

Input AGHK . Output enrichment ratio: ≤ 0.25

Input VNRI . Output enrichment ratio: ≤ 0.25

Input MDHH . Output enrichment ratio: ≤ 0.25

Input TTSA . Output enrichment ratio: 11.5

Input ASKR . Output enrichment ratio: ≤ 0.25

Input PMHY . Output enrichment ratio: ≤ 0.25

Input WIYN . Output enrichment ratio: ≤ 0.25

Input EAAQ . Output enrichment ratio: ≤ 0.25

Input SYEW . Output enrichment ratio: ≤ 0.25

Input QQHW . Output enrichment ratio: ≤ 0.25

Input WLRY . Output enrichment ratio: ≤ 0.25

Input SDCI . Output enrichment ratio: 4.22

Input WMMI . Output enrichment ratio: ≤ 0.25

Input SDHM . Output enrichment ratio: ≤ 0.25

Input APCH . Output enrichment ratio: ≤ 0.25

Input YTWS . Output enrichment ratio: ≤ 0.25

Input VDHE . Output enrichment ratio: ≤ 0.25

Input DRPI . Output enrichment ratio: ≤ 0.25
